Origin of measurements: patent US12018066

test-system: SARS-CoV-2 spike protein receptor binding domain (RBD2) (SARS-CoV-2, UniProt P0DTC2 319-537)
assay-text: SPR
measured-parameter: Kd (nM)
# value in nM; strip the unit string

Fill in the blank: the reported Kd of G07 IgG1 (antibody, V domains shown) VH: QVQLVQSGAEVKKPGESLKISCKGSGYSFTSYWIGWVRQMPGKGLEWMGIIYPGDSDIRYSPSFQGQVTISADKSFSSAYLQWSSLKASDTAMYYCARLGATGAFDIWGQGTTVTVSS VL: QSVLIQPPSASGTPGQRVTISCSGSNSNFGSNSVSWYQQRPGTAPKLLIEGNNQRPSGVPERFSGSKSGTSASLAISGLQSEDEAEYSCASWDDSLNAFVFGPGTKLTVL is ____.
320
